Values from patent US11225505B2

# key: entry, value: Minimum inhibitory concentration
System: Pseudomonas aeruginosa ATCC 27853
Format: cell-based
RUN PARAMETERS: ATCC 27853
Where a SMILES comes first, the peptide text is derived from it. Bridges are numbered along the chain shown (N, C = ends). [ ]: non-standard residue; d: D form. The star is where a group is joined. X23 = O=C(c1cc2ccccc2[nH]1)*; X39 = O=C(c1noc2ccccc12)*; X50 = O=C(c1sc(Br)cc1Br)*; Dab = NCC[C@H](N)C(=O)O; Abu = CC[C@H](N)C(=O)O; Dap = NC[C@H](N)C(=O)O
RECORDED ENDPOINT: Minimum inhibitory concentration (µg/mL)

>>> observed("CC(C)C[C@H]1NC(=O)[C@H](CCN)NC(=O)[C@@H](NC(=O)[C@H](CN)NC(=O)[C@@H](NC(=O)[C@H](CCN)NC(=O)c2sc(Br)cc2Br)[C@@H](C)O)CCNC(=O)[C@H]([C@@H](C)O)NC(=O)[C@H](CCN)NC(=O)[C@H](CCN)NC(=O)[C@H](C)NC1=O [Compound 99] (X50-[Dab]T[Dap][Dab][Dab][dL]A[Dab][Dab]T; lactam 4-C)")
0.25
>>> observed("CC(C)C[C@H]1NC(=O)[C@H](CCN)NC(=O)[C@@H](NC(=O)[C@H](CN)NC(=O)[C@@H](NC(=O)[C@H](CCN)NC(=O)c2cc3ccccc3[nH]2)[C@@H](C)O)CCNC(=O)[C@H]([C@@H](C)O)NC(=O)[C@H](CCN)NC(=O)[C@H](CCN)NC(=O)[C@H]([C@@H](C)O)NC1=O [Compound 66] (X23-[Dab]T[Dap][Dab][Dab][dL]T[Dab][Dab]T; lactam 4-C)")
0.5
>>> observed("CC[C@@H]1NC(=O)[C@@H](CC(C)C)NC(=O)[C@H](CCN)NC(=O)[C@@H](NC(=O)[C@H](CN)NC(=O)[C@@H](NC(=O)[C@H](CCN)NC(=O)c2noc3ccccc23)[C@@H](C)O)CCNC(=O)[C@H]([C@@H](C)O)NC(=O)[C@H](CCN)NC(=O)[C@H](CCN)NC1=O [Compound 75] (X39-[Dab]T[Dap][Dab][Dab][dL][Abu][Dab][Dab]T; lactam 4-C)")
0.5
